Taken from patent US20220033484A1.

Measured pKd by item
Biological target: T1, cTnI quality control product recombinant protein (human, UniProt P19429 2-210, limits assumed)
T1 construct: treated as the same molecule; also called cTnI antigen; cardiac troponin I
T1 sequence (P19429 2-210 limits assumed): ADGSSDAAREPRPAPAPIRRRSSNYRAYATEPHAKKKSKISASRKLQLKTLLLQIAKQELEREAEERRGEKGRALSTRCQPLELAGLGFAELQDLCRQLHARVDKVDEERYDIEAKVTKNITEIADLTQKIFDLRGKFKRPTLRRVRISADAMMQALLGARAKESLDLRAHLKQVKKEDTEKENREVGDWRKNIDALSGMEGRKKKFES
Assay: AMC sensor, antibody immobilised, cTnI in solution
Please report pKd as the negative decimal logarithm of the molar concentration, giving only the number.

1. Mutation 1-32 (antibody, V domains shown, Built as m8) VH: EVQLQQSGPELVKPGASVKMSCKASGYTFTIYVIHWVKQKPGQGLEWIGYINPYLDGTKYNEKFKGKATLTVDKSSSTAFMELSSLTSEDSAVYYCARSGYGGYGLAWLAYWGQGTLVTVSA VL: QAVVIQESALTTSPGETVTLTCRSSTGAATTSNYANWVQEKPDHLFTGLIGGSNNRAPGVPARFSGSLIGDKAALTITGAQTEDEAIYFCALVYSNHWVFGGGTKLTVLG
9.12

// switching to the query binder
[Q] Need pKd, item Mutation 1-4 (antibody, V domains shown, Built as m8) VH: EVQLQQSGPELVKPGASVKMSCKASGYTFTLYVLHWVKQKPGQGLEWIGYIQPYIDGTKYNEKFKGKATLTVDKSSSTAFMELSSLTSEDSAVYYCARSGYGNYGLAWLAYWGQGTLVTVSA VL: QAVVIQESALTTSPGETVTLTCRSSTGAATTSQYANWVQEKPDHLFTGLIGGSNNRAPGVPARFSGSLIGDKAALTITGAQTEDEAIYFCALVYSNNWVFGGGTKLTVLG
[A] 8.30
